# System: HL-60
# ASSAY: Antitumor activity against HL60 cells after 6 hrs by MTT assay
# Format: functional, cell-based
# TEST_PARAMETERS: Homo sapiens, HL-60, 6 h
pIC50: −log10 of the molar value.
QUANTITY_MEASURED: pIC50

(P) CCC(=C(c1ccc(OCCN2CCCC2)cc1)c1ccc(OCCN2CCCC2)cc1)c1ccccc1
(Q) CCC(=C(c1ccc(OCCN2CCCCC2)cc1)c1ccc(OCCN2CCCCC2)cc1)c1ccccc1
// which entry reports the smaller pIC50, P or Q ? Answer by quoting the chosen item's label. Q
